What Kd was measured for each of the following?
TEST_SYSTEM: soluble gp41 MPER peptide RRR-(656-683)-RRR
TEST_PROTOCOL: kinetic binding (ka/kd)
API: value field is a number in nM; no unit string.

# Kd lookup, item S56A (heavy chain) (antibody, V domains shown) VH: EVQLVESGGGLVKPGGSLRLSCSASGFDFDNAWMTWVRQPPGKGLEWVGRITGPGEGWAVDYAAPVEGRFTISRLNSINFLYLEMNNLRMEDSGLYFCARTGKYYDFWSGYPPGEEYFQDWGRGTLVTVSS VL: SYELTQETGVSVALGRTVTITCRGDSLRSHYASWYQKKPGQAPILLFYGKNNRPSGVPDRFSGSASGNRASLTISGAQAEDDAEYYCSSRDKSGSRLSVFGGGTKLTVL
10.9

Another binder to check: E100jA (heavy chain) (antibody, V domains shown) VH: EVQLVESGGGLVKPGGSLRLSCSASGFDFDNAWMTWVRQPPGKGLEWVGRITGPGEGWSVDYAAPVEGRFTISRLNSINFLYLEMNNLRMEDSGLYFCARTGKYYDFWSGYPPGEAYFQDWGRGTLVTVSS VL: SYELTQETGVSVALGRTVTITCRGDSLRSHYASWYQKKPGQAPILLFYGKNNRPSGVPDRFSGSASGNRASLTISGAQAEDDAEYYCSSRDKSGSRLSVFGGGTKLTVL
361

Another binder to check: F100aA (heavy chain) (antibody, V domains shown) VH: EVQLVESGGGLVKPGGSLRLSCSASGFDFDNAWMTWVRQPPGKGLEWVGRITGPGEGWSVDYAAPVEGRFTISRLNSINFLYLEMNNLRMEDSGLYFCARTGKYYDAWSGYPPGEEYFQDWGRGTLVTVSS VL: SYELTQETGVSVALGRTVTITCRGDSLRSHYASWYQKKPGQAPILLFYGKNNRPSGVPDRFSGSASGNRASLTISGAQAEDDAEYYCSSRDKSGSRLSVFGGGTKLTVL
429

Another binder to check: W100bA (heavy chain) (antibody, V domains shown) VH: EVQLVESGGGLVKPGGSLRLSCSASGFDFDNAWMTWVRQPPGKGLEWVGRITGPGEGWSVDYAAPVEGRFTISRLNSINFLYLEMNNLRMEDSGLYFCARTGKYYDFASGYPPGEEYFQDWGRGTLVTVSS VL: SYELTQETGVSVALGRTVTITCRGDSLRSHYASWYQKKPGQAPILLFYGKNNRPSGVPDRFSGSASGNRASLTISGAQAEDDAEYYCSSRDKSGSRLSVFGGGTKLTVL
93.1

Another binder to check: D58A (heavy chain) (antibody, V domains shown) VH: EVQLVESGGGLVKPGGSLRLSCSASGFDFDNAWMTWVRQPPGKGLEWVGRITGPGEGWSVAYAAPVEGRFTISRLNSINFLYLEMNNLRMEDSGLYFCARTGKYYDFWSGYPPGEEYFQDWGRGTLVTVSS VL: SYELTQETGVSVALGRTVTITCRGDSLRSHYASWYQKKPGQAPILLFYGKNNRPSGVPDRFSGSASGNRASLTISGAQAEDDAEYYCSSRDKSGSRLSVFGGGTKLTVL
30.6
